assay_system: Cbl-b (Homo sapiens, UniProt Q13191)
Construct: Cbl-b-HiBit KI Jurkat Cells were purchased from Promega; host or cells: Cbl-b-HiBiT knock-in Jurkat cells
Sequence (Q13191 whole entry): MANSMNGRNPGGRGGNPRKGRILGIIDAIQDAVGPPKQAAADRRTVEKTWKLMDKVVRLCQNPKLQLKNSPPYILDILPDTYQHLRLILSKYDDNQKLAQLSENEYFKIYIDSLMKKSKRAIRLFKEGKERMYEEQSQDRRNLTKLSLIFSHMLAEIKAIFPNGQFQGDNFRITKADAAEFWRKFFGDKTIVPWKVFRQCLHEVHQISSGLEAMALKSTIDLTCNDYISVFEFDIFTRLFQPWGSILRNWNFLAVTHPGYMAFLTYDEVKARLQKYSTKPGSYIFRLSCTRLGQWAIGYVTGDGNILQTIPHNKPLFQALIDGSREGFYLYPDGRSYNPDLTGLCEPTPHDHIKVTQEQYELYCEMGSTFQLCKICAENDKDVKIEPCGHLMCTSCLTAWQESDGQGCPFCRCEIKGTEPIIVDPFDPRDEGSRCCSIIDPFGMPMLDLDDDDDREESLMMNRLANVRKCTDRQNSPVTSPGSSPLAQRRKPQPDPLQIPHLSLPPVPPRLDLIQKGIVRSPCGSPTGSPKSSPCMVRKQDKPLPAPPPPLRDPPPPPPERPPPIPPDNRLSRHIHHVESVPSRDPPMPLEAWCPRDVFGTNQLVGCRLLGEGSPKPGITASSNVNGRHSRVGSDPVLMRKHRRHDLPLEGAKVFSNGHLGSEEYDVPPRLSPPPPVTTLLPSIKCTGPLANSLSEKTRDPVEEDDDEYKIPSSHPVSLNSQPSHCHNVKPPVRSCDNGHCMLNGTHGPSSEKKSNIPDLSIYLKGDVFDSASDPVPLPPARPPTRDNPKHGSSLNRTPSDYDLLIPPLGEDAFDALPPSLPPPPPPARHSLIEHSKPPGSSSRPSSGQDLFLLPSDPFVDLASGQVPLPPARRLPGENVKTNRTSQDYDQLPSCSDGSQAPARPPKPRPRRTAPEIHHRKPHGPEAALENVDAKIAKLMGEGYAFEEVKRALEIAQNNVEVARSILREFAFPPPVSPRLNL
assay_procedure: Cbl-b Degradation Method A (FACS, anti-Cbl-b antibody staining)
Assay type: cell-based
study_conditions: Jurkat, Cbl-b-HiBit KI Jurkat Cells, incubated at least 20 hours; maximum degradation observed; read-out: Cbl-b Degredation Method A Dmax (%)
observation_type: Dmax

INSERT INTO assay_data (molecule, observation_type, result) VALUES
  ('CC1c2nc(N3CCC(O[C@H]4CC[C@H](CN5CCC6(CCN(c7cc8c(c(C(F)(F)F)c7)CN(c7cccc([C@]9(Cc%10nncn%10C)C[C@@H](C#N)C9)c7)C8=O)C6)C5)CC4)CC3)ccc2C(=O)N1C1CCC(=O)NC1=O (stereo partly drawn) [Example 179]', 'Dmax', '35 to 70%'),
  ('Cn1cnnc1CC1(c2cccc(N3Cc4c(cc(N5CCN(C[C@H]6CC[C@H](OC7CCN(c8ccc9c(c8F)CN(C8CCC(=O)NC8=O)C9=O)CC7)CC6)CC5)cc4C(F)(F)F)C3=O)c2)COC1 (stereo partly drawn) [Example 139]', 'Dmax', '35 to 70%'),
  ('Cn1cnnc1CC1(c2cccc(N3Cc4c(cc(N5CC(CC6CCN(c7ccc8c(c7)C(=O)N(C7CCC(=O)NC7=O)C8=O)CC6)C5)cc4C(F)(F)F)C3=O)c2)COC1 (stereo not drawn) [Example 133]', 'Dmax', '> 70%');
